targetUnderTest: Glutamate NMDA receptor
test: Affinity for the glycine binding site on rat N-methyl-D-aspartate glutamate receptor 1, determined by displacement of the glycine site antagonist [3H]L-689,560 from rat cortical membranes
parameter: log10 of IC50 (log10 of the value in nM)
Remember, log10 of IC50, in nM.

O=C(c1cccs1)c1c(O)c2ccc(Cl)cc2[nH]c1=O ... 3.04
Oc1nc2cc(Cl)ccc2c(O)c1-c1cccc(OCC2CC2)c1 ... 1.58
Cc1ccc(-c2c(O)c3ccc(Cl)cc3[nH]c2=O)o1 ... 2.68
O=C(c1ccc(Cl)s1)c1c(O)nc2cc(Cl)ccc2c1O ... 3.18
CCOC(=O)c1c(O)c2ccc(I)cc2[nH]c1=O ... 4.48

Okay, here is my list. What is log10 of IC50 for each of these?
1. COc1ccc(Cc2cccc(-c3c(O)c4ccc(Cl)cc4[nH]c3=O)c2)cc1
2. COCOc1ccc(Cc2cccc(-c3c(O)c4ccc(Cl)cc4[nH]c3=O)c2)cc1
3. C=C(C)COc1cccc(-c2c(O)nc3cc(Cl)ccc3c2O)c1

Given back:
1. 0.65
2. 0.34
3. 1.04

Quick one: give me log10 of IC50 for each item below, same order please.
1. O=C(c1c(O)nc2cc(Cl)ccc2c1O)c1csc2ccccc12
2. Oc1nc2cc(Cl)ccc2c(O)c1-c1ccc(F)cc1
3. CC(=O)c1cc(Cc2cccc(-c3c(O)c4ccc(Cl)cc4[nH]c3=O)c2)ccc1O

Given back:
1. 3.35
2. 2.82
3. 1.63

====

targetUnderTest: Glutamate NMDA receptor
test: Affinity for the glycine binding site on rat N-methyl-D-aspartate glutamate receptor 1, determined by displacement of the glycine site antagonist [3H]L-689,560 from rat cortical membranes
Consider the cut-off 9 nM. If the recorded IC50 is strictly smaller, the label is rule met; if not, the label is rule not met.

Oc1nc2cc(Cl)ccc2c(O)c1-c1cccc(Cc2cccc3ccccc23)c1 ... rule not met

Asked: Hi there! Is IC50 for `Cn1cccc1-c1c(O)nc2cc(Cl)ccc2c1O` below 9 nM, do you know?
Given back: rule not met

Asked: Could you please tell me whether IC50 recorded for `CSc1ccc(Cc2cccc(-c3c(O)nc4cc(Cl)ccc4c3O)c2)cc1` is less than 9 nM?
Given back: rule met

Asked: Is the reported IC50 for `O=C(c1ccccc1)c1cccc(-c2c(O)nc3cc(Cl)ccc3c2O)c1` strictly below 9 nM?
Given back: rule met

Asked: Identify whether the compound `O=C(O)c1cccc(-c2c(O)nc3cc(Cl)ccc3c2O)c1` records IC50 below 9 nM.
Given back: rule not met

====

targetUnderTest: Glutamate NMDA receptor
test: Affinity for the glycine binding site on rat N-methyl-D-aspartate glutamate receptor 1, determined by displacement of the glycine site antagonist [3H]L-689,560 from rat cortical membranes
I'd appreciate it if you marked entries satisfied when IC50 is lower than 10 nM and not satisfied when it is not.

Asked: I'd appreciate it if you could check whether `CN(C)Cc1sccc1Oc1cccc(-c2c(O)nc3cc(Cl)ccc3c2O)c1` has IC50 smaller than 10 nM.
Given back: not satisfied

Asked: hey, is IC50 for `CCc1cc(Cl)cc2nc(O)c(-c3cccc(Oc4ccccc4)c3)c(O)c12` lower than 10 nM or not?
Given back: satisfied

Asked: # strict comparison: is reported IC50 < 10 nM? input = `O=c1[nH]c2cc(Cl)c(Cl)c([N+](=O)[O-])c2[nH]c1=O`
Given back: satisfied

Asked: I wonder whether `Oc1nc2cc(Cl)ccc2c(O)c1-c1cccc(OCc2ccccc2)c1` has IC50 below 10 nM. Can you tell?
Given back: not satisfied

Asked: # check: IC50 < 10 nM for `CCOC(=O)c1c(O)c2ccc(Cl)cc2[nH]c1=O`
Given back: not satisfied

Asked: Hello, I'm reviewing records and need to know if IC50 of `O=C(CCc1c(C(=O)O)[nH]c2cc(Cl)cc(Cl)c12)Nc1ccccc1` is below 10 nM. Could you check?
Given back: not satisfied

Asked: # strict comparison: is reported IC50 < 10 nM? input = `O=C(c1ccc(Br)s1)c1c(O)nc2cc(Cl)ccc2c1O`
Given back: not satisfied

Asked: State whether 10 nM exceeds IC50 recorded for `COCCOCOc1ccc(Cc2cccc(-c3c(O)nc4cc(Cl)ccc4c3O)c2)cc1` .
Given back: satisfied

Asked: Does `O=c1[nH]c2ccccc2c(O)c1-c1ccccc1` have IC50 strictly under 10 nM?
Given back: not satisfied

Asked: Decide: IC50 of `COc1ccccc1Cc1cccc(-c2c(O)nc3cc(Cl)ccc3c2O)c1` strictly below 10 nM?
Given back: satisfied

Asked: Item `COc1ccc(-c2c(O)c3ccc(Cl)cc3[nH]c2=O)cc1` : IC50 beneath 10 nM, strictly?
Given back: not satisfied

====

targetUnderTest: Glutamate NMDA receptor
test: Affinity for the glycine binding site on rat N-methyl-D-aspartate glutamate receptor 1, determined by displacement of the glycine site antagonist [3H]L-689,560 from rat cortical membranes
parameter: IC50 (nM)
Numbers only, in nM.

Worked examples, 3 compounds total:
NCc1ccc(CC(=O)N[C@H]2C[C@H](C(=O)O)Nc3cc(Cl)cc(Cl)c32)cc1 ... 38.5
Oc1nc2cc(Cl)ccc2c(O)c1-c1ccsc1 ... 352
Oc1nc2cc(Cl)ccc2c(O)c1-c1cccc(C#Cc2ccccc2)c1 ... 34.3

Kindly consider the entry below.
Asked: Field request: IC50 | item: `Cc1ccc(Oc2cccc(-c3c(O)nc4cc(Cl)ccc4c3O)c2)cc1`
Given back: 7.8

====

targetUnderTest: Glutamate NMDA receptor
test: Affinity for the glycine binding site on rat N-methyl-D-aspartate glutamate receptor 1, determined by displacement of the glycine site antagonist [3H]L-689,560 from rat cortical membranes
parameter: pIC50
One number for each entry, as −log10 of the molar value.

# annotated cases, reported pIC50 shown
Oc1nc2cc(Cl)ccc2c(O)c1-c1cccc(C2=CCc3ccccc32)c1 ... 8.22
O=c1[nH]c2cc(Cl)ccc2c(O)c1-c1cccc(NCc2ccccc2)c1 ... 8.02
Cc1ccc(-c2c(O)nc3cc(Cl)ccc3c2O)cc1 ... 6.41
Cc1cccc(-c2c(O)nc3cc(Cl)ccc3c2O)c1 ... 7.08

// input: 4 molecules below; output: pIC50 for each
1. O=C(CC1CCc2cc(Br)cc3[nH]c(=O)c(=O)n1c23)Nc1ccccc1 (stereo unspecified)
2. COc1cccc(-c2c(O)nc3cc(Cl)ccc3c2O)c1
3. O=C(OCCc1ccsc1)c1c(O)nc2cc(Cl)ccc2c1O
4. CN(Cc1cccc(-c2c(O)nc3cc(Cl)ccc3c2O)c1)c1ccccc1

Given back:
[7.62, 6.69, 5.52, 7.93]

====

targetUnderTest: Albumin (Homo sapiens)
Sequence (P02768 whole entry): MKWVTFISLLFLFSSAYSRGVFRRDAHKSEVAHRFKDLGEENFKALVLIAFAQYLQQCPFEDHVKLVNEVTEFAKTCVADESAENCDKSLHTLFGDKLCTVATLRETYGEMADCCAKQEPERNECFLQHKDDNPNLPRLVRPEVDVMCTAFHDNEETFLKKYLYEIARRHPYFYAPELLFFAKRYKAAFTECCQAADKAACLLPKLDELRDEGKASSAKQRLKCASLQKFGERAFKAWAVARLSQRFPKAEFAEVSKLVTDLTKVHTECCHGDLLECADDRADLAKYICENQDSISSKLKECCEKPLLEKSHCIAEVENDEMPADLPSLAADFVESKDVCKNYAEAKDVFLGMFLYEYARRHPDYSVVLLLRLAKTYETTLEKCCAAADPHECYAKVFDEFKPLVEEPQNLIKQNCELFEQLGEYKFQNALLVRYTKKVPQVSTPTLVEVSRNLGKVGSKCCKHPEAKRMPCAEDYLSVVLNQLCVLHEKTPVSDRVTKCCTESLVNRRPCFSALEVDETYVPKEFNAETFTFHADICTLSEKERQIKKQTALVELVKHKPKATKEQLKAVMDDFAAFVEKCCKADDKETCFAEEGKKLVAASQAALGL
test: Human serum albumin index was measured by retention time on an HPLC column containing human albumin
parameter: HSAI
Numbers only.

Below are some compounds; for each one, tell me its HSAI.
1. Oc1nc2cc(Cl)ccc2c(O)c1-c1cccc(C#Cc2ccccc2)c1
2. O=C(CC1CCc2cc(Br)cc3[nH]c(=O)c(=O)n1c23)Nc1ccccc1 (stereo unspecified)
3. O=c1[nH]c2cc(Cl)ccc2c(O)c1-c1cccc(Oc2ccccc2)c1
4. N[C@H](Cc1cc(I)c(OCCc2ccc(O)cc2)c(I)c1)C(=O)O
5. CC(=O)c1cc(Cc2cccc(-c3c(O)c4ccc(Cl)cc4[nH]c3=O)c2)ccc1O
6. O=C(OCCc1ccsc1)c1c(O)nc2cc(Cl)ccc2c1O

Given back:
[577, 24, 100, 16, 75, 45]

====

test: Partition coefficient (logP)
Assay type: physicochemical
experimentalContext: octanol/water
For each of the compounds below, state its logP.
Answers are plain numbers.

Oc1nc2cc(Cl)ccc2c(O)c1-c1cccc(Cc2ccc(CCN3CCOCC3)cc2)c1 ... 3.01
O=C(CC1CCc2cc(Br)cc3[nH]c(=O)c(=O)n1c23)Nc1ccccc1 (configuration not stated) ... 2.78
O=C1Nc2cc(Cl)ccc2CC1[N+](=O)[O-] (configuration not stated) ... 0.62
O=C(/C=C/c1c(C(=O)O)[nH]c2cc(Cl)cc(Cl)c12)Nc1ccccc1 ... 2.24
O=C(c1c(O)nc2cc(Cl)ccc2c1O)C1CC1 ... 0.35
O=c1[nH]c2cc(Cl)ccc2c(O)c1-c1ccccc1 ... 1.6
COc1ccc(CCOc2c(I)cc(C[C@@H](N)C(=O)O)cc2I)cc1 ... 2.65
O=C(Cc1ccccc1)c1c(O)c2ccc(Cl)cc2[nH]c1=O ... 1.66
O=C(O)c1cc(O)c2c(Cl)cc(Cl)cc2n1 ... -0.44
O=c1[nH]c2cc(Cl)ccc2c(O)c1-c1cccc(Oc2ccsc2)c1 ... 2.75

Count: 2. Required value per item: logP.
1. Oc1nc2cc(Cl)ccc2c2oc3ccccc3c12
2. CCOC(=O)c1c(O)c2ccc(Cl)cc2[nH]c1=O

Given back:
1. 4.34
2. 0.7

====

targetUnderTest: UniProt:P02768
test: Human serum albumin index was measured by retention time on an HPLC column containing human albumin
Decision: HSAI >= 50 yields true (1), all other cases yield false (0).

Oc1nc2cc(Cl)ccc2c(O)c1-c1ccc(Oc2ccccc2)cc1 ... true (1)
O=C(CCc1c(C(=O)O)[nH]c2cc(Cl)cc(Cl)c12)Nc1ccccc1 ... true (1)

Asked: Does the reported HSAI for `COc1ccc(CCOc2c(I)cc(C[C@@H](N)C(=O)O)cc2I)cc1` fall at or above the 50 mark?
Given back: false (0)

Asked: Form field: HSAI at least 50? Entry: `COC(=O)c1c(O)c2ccc(Cl)cc2[nH]c1=O`
Given back: false (0)

Asked: State whether the measured HSAI reaches 50, counting equality as reaching it, for `Cc1cn(-c2c(O)nc3cc(Cl)ccc3c2O)c2ccccc12`
Given back: true (1)

Asked: Hello, I need to know if `Cc1ccc(-c2c(O)c3ccc(Cl)cc3[nH]c2=O)o1` has measured HSAI not below 50. Thanks!
Given back: false (0)

Asked: Kindly determine if HSAI recorded for `O=C(/C=C/c1c(C(=O)O)[nH]c2cc(Cl)cc(Cl)c12)Nc1ccccc1` is above or exactly 50.
Given back: true (1)
